Numbers sourced from paper PMC10092581.

- System: H157 lung carcinoma cells
- ASSAY_PROCEDURE: MTT cytotoxicity, 72 h
- Format: cell-based, human
- RUN_PARAMETERS: read-out: IC50 (μM)±SD H157, MTT test
READOUT_LABEL: IC50 (µM)
Give bare numbers, in µM.

{"COMPOUND": "N.N.[Cl][Pt][Cl] [Cisplatin]", "IC50 / µM": 5.9}

Prompt line: Fill in the blank: the reported IC50 of CC(=O)OC[C@H]1O[C@@H]([S-])[C@H](OC(C)=O)[C@@H](OC(C)=O)[C@@H]1OC(C)=O.CCP(CC)CC.[Au+] is ____.
Response line: 1.6

----------
- Test system: HCT‐15 colon cancer cells
- ASSAY_PROCEDURE: MTT cytotoxicity, 72 h
- Type: cell-based, human
- RUN_PARAMETERS: read-out: IC50 (μM)±SD HCT‐15, MTT test
READOUT_LABEL: IC50
Remember to put the unit after the number in your answer.

{"MOLECULE": "N.N.[Cl][Pt][Cl] [Cisplatin]", "OBSERVED_RESULT": "11.3 µM"}

Now look at this one.
Prompt line: Fill in the blank: the reported IC50 of CC(=O)OC[C@H]1O[C@@H]([S-])[C@H](OC(C)=O)[C@@H](OC(C)=O)[C@@H]1OC(C)=O.CCP(CC)CC.[Au+] [Auranofin] is ____.
Response line: 0.1 µM
